Experiment: Pharmacokinetic studies, single oral dose
Type: in vivo, Wistar Rats
Conditions: female, Wistar, rat, plasma; rats, 100 mg/kg single oral dose
property: Tmax
The answer consists of two parts: a number and, after it, its unit.

INPUT: Value lookup for Tmax; key = COc1cc(C=CC(=O)CC(=O)C=Cc2ccc(O)c(OC)c2)ccc1O [Free curcumin]
OUTPUT: 2 h

----------
Experiment: Pharmacokinetic studies, single oral dose
Format: in vivo, Wistar Rats
Conditions: female, Wistar, rat, plasma; rats, 100 mg/kg single oral dose
property: MRT

INPUT: Value lookup for MRT; key = COc1cc(C=CC(=O)CC(=O)C=Cc2ccc(O)c(OC)c2)ccc1O [Free curcumin]
OUTPUT: 2 h
